Exercise: state measured concentration of [Fe]siderophore at which growth was supported for each of the molecules provided.
tested on: A. fumigatus mutant strain ΔsidA/ΔftrA; test: Siderophore utilization growth assay; type: cell-based, Aspergillus fumigatus; conditions: 37 °C, 48 h incubation
Numbers only, in µM.

# annotated cases, reported concentration of [Fe]siderophore at which growth was supported shown
[[record]]
molecule = "CC1=CC(=O)N([O-])CCCC(NC(=O)CN)C(=O)OCCC(C)=CC(=O)N([O-])CCCC(NC(=O)CN)C(=O)OCCC(C)=CC(=O)N([O-])CCCC(NC(=O)CN)C(=O)OCC1.[Fe+3] (stereo not shown) [[Fe]FSC(gly)3, triglycyl[Fe]FSC]"
subject_of_test = "A. fumigatus mutant strain ΔsidA/ΔftrA"
unit_symbol = "µM"
value_measured = 1

[[record]]
molecule = "CC(=O)NC1CCCN([O-])C(=O)C=C(C)CCOC(=O)C(NC(=O)CCC(=O)O)CCCN([O-])C(=O)C=C(C)CCOC(=O)C(NC(C)=O)CCCN([O-])C(=O)C=C(C)CCOC1=O.[Fe+3] (stereo not shown) [[Fe]DAFC(suc), succinyl[Fe]DAFC]"
subject_of_test = "A. fumigatus mutant strain ΔsidA/ΔftrA"
unit_symbol = "µM"
value_measured = 1

[[record]]
molecule = "CC(=O)NC1CCCN([O-])C(=O)C=C(C)CCOC(=O)C(N)CCCN([O-])C(=O)C=C(C)CCOC(=O)C(N)CCCN([O-])C(=O)C=C(C)CCOC1=O.[Fe+3] (stereo not shown) [[Fe]MAFC, acetyl[Fe]FSC]"
subject_of_test = "A. fumigatus mutant strain ΔsidA/ΔftrA"
unit_symbol = "µM"
value_measured = 0.1


Switching to the query record.
Data request: Bench note: what concentration of [Fe]siderophore at which growth was supported did CC1=CC(=O)N([O-])CCCC(N)C(=O)OCCC(C)=CC(=O)N([O-])CCCC(N)C(=O)OCCC(C)=CC(=O)N([O-])CCCC(N)C(=O)OCC1.[Fe+3] (stereo not shown) [[Fe]FSC, [Fe]fusarinine C, reference compound] show?
Data returned: 0.1
